Target: T1, rat APJ receptor (rat, UniProt Q9JHG3 1-377)
T1 sequence (looked up): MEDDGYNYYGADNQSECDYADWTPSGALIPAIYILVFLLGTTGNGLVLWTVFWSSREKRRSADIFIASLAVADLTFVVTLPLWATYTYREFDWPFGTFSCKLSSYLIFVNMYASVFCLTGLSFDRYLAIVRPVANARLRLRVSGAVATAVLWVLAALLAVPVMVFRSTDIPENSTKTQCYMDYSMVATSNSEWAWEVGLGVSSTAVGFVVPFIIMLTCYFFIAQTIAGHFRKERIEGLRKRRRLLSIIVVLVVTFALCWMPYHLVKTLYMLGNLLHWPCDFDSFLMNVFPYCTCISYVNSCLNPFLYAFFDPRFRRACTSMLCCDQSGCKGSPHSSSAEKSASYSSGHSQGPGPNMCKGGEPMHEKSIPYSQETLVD
Experiment: cell-based or functional assay
Starred links: 1 amine or outer side, 2 acyl side, 3 side chain; linkers in the order of their positions; H or OH if unused. Non-standard residues stand in square brackets, D forms with d. *: point of attachment. dBip = N[C@H](Cc1ccc(-c2ccccc2)cc1)C(=O)O; Oic = O=C(O)[C@@H]1C[C@@H]2CCCC[C@@H]2N1; Phe(4-Cl) = N[C@@H](Cc1ccc(Cl)cc1)C(=O)O; dPhe(4-Cl) = N[C@H](Cc1ccc(Cl)cc1)C(=O)O; γGlu = O=C(O)[C@H](CCC(=O)[*:2])N[*:1]; NMeR = CN[C@@H](CCCNC(=N)N)C(=O)O; Palmitoyl = CCCCCCCCCCCCCCCC(=O)*; hArg = N=C(N)NCCCC[C@H](N)C(=O)O; Cha = N[C@@H](CC1CCCCC1)C(=O)O; αMeL = CC(C)C[C@](C)(N)C(=O)O; β3hP = O=C(O)C[C@@H]1CCCN1; Nle = CCCC[C@H](N)C(=O)O; AEEA = NCCOCCOCC(=O)O; BLeu = β-leucine; Mpa = O=C(O)CCS
Values of EC50 Rat APJ Receptor strictly less than 0.6 nM map to True, and values of at least 0.6 nM map to False.

{"binder": "XXXQRPRLSHKGPXPF ({HDA}[AC4Abu][Aeea][Aeea]QRP[NMeArg]LSHKGP[Nle]P[4-Cl-F]{COOH}) [SEQ ID NO: 496]", "label": "True"}
{"binder": "QRPRLSHKGPXPF ({H2}[MerPr](10K mPEG acetamide)Q[NMehArg]P[NMeArg][aMeLeu]SHKGP[Nle]P[4-Cl-F]{COOH}) [SEQ ID NO: 116]", "label": "False"}
{"binder": "XXXQRPRLSHKGPXPF ({HexDDA}[AC4Abu][Aeea][Aeea]QRP[NMeArg]LSHKGP[Nle]P[4-Cl-F]{COOH}) [SEQ ID NO: 512]", "label": "False"}
{"binder": "{mPEG 10 kDa acetamide}-[Mpa][dQ][hArg]P[NMeR][Cha]SHKG[Oic][Nle]P[dPhe(4-Cl)]-OH (numbers in words are those of the source; also: N-terminus written {H2}) [SEQ ID NO: 111]", "label": "False"}
{"binder": "XXXQRPRLSHKGPXPF ({Dodecanoyl-NH}[AC4Abu][Aeea][Aeea]QRP[NMeArg]LSHKGP[Nle]P[4-Cl-F]{COOH}) [SEQ ID NO: 591]", "label": "False"}
{"binder": "Palmitoyl-[γGlu][AEEA][AEEA][dQ]RP[NMeR][αMeL][BLeu]HKG[Oic][Nle][β3hP][Phe(4-Cl)]-OH [SEQ ID NO: 628]", "label": "False"}
{"binder": "XXXQRPRLSHKGPXPF ({PDA}[AC4Abu][Aeea][Aeea]QRP[NMeArg]LSHKGP[Nle]P[4-Cl-F]{COOH}) [SEQ ID NO: 495]", "label": "True"}
{"binder": "XXXQRPRLSHKGPXPF ({TDA}[AC4Abu][Aeea][Aeea][BhGln]RP[NMeArg]LSHKGP[Nle]P[4-Cl-F]{COOH}) [SEQ ID NO: 463]", "label": "True"}
{"binder": "XXXQRPRLSHKGPXPF ({Oc}[AC4Abu][Aeea][Aeea]QRP[NMeArg]LSHKGP[Nle]P[4-Cl-F]{COOH}) [SEQ ID NO: 493]", "label": "False"}
{"binder": "Ac-RQRPRLSHKGP[Nle]P[dBip]-OH (SMILES CCCC[C@H](NC(=O)[C@@H]1CCCN1C(=O)CNC(=O)[C@H](CCCCN)NC(=O)[C@H](Cc1c[nH]cn1)NC(=O)[C@H](CO)NC(=O)[C@H](CC(C)C)NC(=O)[C@H](CCCNC(=N)N)NC(=O)[C@@H]1CCCN1C(=O)[C@H](CCCNC(=N)N)NC(=O)[C@H](CCC(N)=O)NC(=O)[C@H](CCCNC(=N)N)NC(C)=O)C(=O)N1CCC[C@H]1C(=O)N[C@H](Cc1ccc(-c2ccccc2)cc1)C(=O)O) [SEQ ID NO: 62]", "label": "False"}
